target: Sigma 2 receptor; test: Binding affinity towards sigma 2 receptor site in rat liver membranes using [3H]DTG as radioligand in presence of (+)-pentazocine.
Label 1 (yes) when Ki < 100 nM; otherwise 0 (no).

Query string: is_below(Ki, 100 nM) for `Nc1ccc(CC(=O)NC2CCN(Cc3ccccc3)CC2)cc1` ?
Result string: 0 (no)

Query string: is_below(Ki, 100 nM) for `COc1cc(CC(=O)NC2CCN(Cc3ccccc3)CC2)cc(OC)c1` ?
Result string: 0 (no)

Query string: is_below(Ki, 100 nM) for `O=C(Cc1ccccc1C(F)(F)F)NC1CCN(Cc2ccccc2)CC1` ?
Result string: 1 (yes)

Query string: is_below(Ki, 100 nM) for `O=C(Cc1ccc(O)cc1)NC1CCN(Cc2ccccc2)CC1` ?
Result string: 0 (no)

Query string: is_below(Ki, 100 nM) for `COc1ccc(CC(=O)NC2CCN(Cc3ccccc3)CC2)cc1` ?
Result string: 0 (no)

Query string: is_below(Ki, 100 nM) for `O=C(Cc1ccccc1Cl)NC1CCN(Cc2ccccc2)CC1` ?
Result string: 0 (no)

Query string: is_below(Ki, 100 nM) for `O=C(Cc1ccc2c(c1)OCO2)NC1CCN(Cc2ccccc2)CC1` ?
Result string: 0 (no)

Query string: is_below(Ki, 100 nM) for `O=C(Cc1ccccc1Br)NC1CCN(Cc2ccccc2)CC1` ?
Result string: 1 (yes)

Query string: is_below(Ki, 100 nM) for `COc1ccc(NC(=O)NC2CCN(Cc3ccccc3)CC2)c(OC)c1` ?
Result string: 0 (no)

Query string: is_below(Ki, 100 nM) for `O=C(Cc1cccc(Cl)c1)NC1CCN(Cc2ccccc2)CC1` ?
Result string: 1 (yes)

Query string: is_below(Ki, 100 nM) for `O=C(Cc1ccc(Cl)cc1Cl)NC1CCN(Cc2ccccc2)CC1` ?
Result string: 1 (yes)

Query string: is_below(Ki, 100 nM) for `O=C(Cc1cccc(O)c1)NC1CCN(Cc2ccccc2)CC1` ?
Result string: 0 (no)

Query string: is_below(Ki, 100 nM) for `O=C(Cc1ccc(O)c(Cl)c1)NC1CCN(Cc2ccccc2)CC1` ?
Result string: 0 (no)

Query string: is_below(Ki, 100 nM) for `O=C(Cc1cccc([N+](=O)[O-])c1)NC1CCN(Cc2ccccc2)CC1` ?
Result string: 1 (yes)

Query string: is_below(Ki, 100 nM) for `O=C(Cc1c(F)cccc1F)NC1CCN(Cc2ccccc2)CC1` ?
Result string: 0 (no)

Query string: is_below(Ki, 100 nM) for `O=C(Cc1cc(F)ccc1F)NC1CCN(Cc2ccccc2)CC1` ?
Result string: 0 (no)

Query string: is_below(Ki, 100 nM) for `O=C(Cc1cc(F)cc(F)c1)NC1CCN(Cc2ccccc2)CC1` ?
Result string: 1 (yes)

Query string: is_below(Ki, 100 nM) for `O=C(Cc1ccc(C(F)(F)F)cc1)NC1CCN(Cc2ccccc2)CC1` ?
Result string: 1 (yes)

Query string: is_below(Ki, 100 nM) for `O=C(Cc1ccccc1O)NC1CCN(Cc2ccccc2)CC1` ?
Result string: 0 (no)

Query string: is_below(Ki, 100 nM) for `O=C(Cc1ccc(F)c(F)c1)NC1CCN(Cc2ccccc2)CC1` ?
Result string: 1 (yes)

Query string: is_below(Ki, 100 nM) for `O=C(Cc1ccc(O)c(O)c1)NC1CCN(Cc2ccccc2)CC1` ?
Result string: 0 (no)

Query string: is_below(Ki, 100 nM) for `O=C(Cc1ccc(Br)cc1)NC1CCN(Cc2ccccc2)CC1` ?
Result string: 1 (yes)

Query string: is_below(Ki, 100 nM) for `COc1ccccc1CC(=O)NC1CCN(Cc2ccccc2)CC1` ?
Result string: 0 (no)

Query string: is_below(Ki, 100 nM) for `O=C(Cc1ccc(Cl)cc1)NC1CCN(Cc2ccccc2)CC1` ?
Result string: 1 (yes)

Query string: is_below(Ki, 100 nM) for `COc1cc(CC(=O)NC2CCN(Cc3ccccc3)CC2)cc(OC)c1OC` ?
Result string: 0 (no)

Query string: is_below(Ki, 100 nM) for `O=C(Cc1ccc([N+](=O)[O-])cc1)NC1CCN(Cc2ccccc2)CC1` ?
Result string: 0 (no)

Query string: is_below(Ki, 100 nM) for `O=C(Cc1c(Cl)cccc1Cl)NC1CCN(Cc2ccccc2)CC1` ?
Result string: 1 (yes)

Query string: is_below(Ki, 100 nM) for `O=C(Cc1cccc(F)c1)NC1CCN(Cc2ccccc2)CC1` ?
Result string: 0 (no)

Query string: is_below(Ki, 100 nM) for `COc1cccc(CC(=O)NC2CCN(Cc3ccccc3)CC2)c1` ?
Result string: 0 (no)

Query string: is_below(Ki, 100 nM) for OC(CCCN1CCC(O)(c2ccc(Cl)cc2)CC1)c1ccc(F)cc1 (stereo unspecified) [HYDROXYHALOPERIDOL] ?
Result string: 1 (yes)

Query string: is_below(Ki, 100 nM) for `COc1ccc(OC)c(CC(=O)NC2CCN(Cc3ccccc3)CC2)c1` ?
Result string: 0 (no)

Query string: is_below(Ki, 100 nM) for `O=C(Cc1ccccc1F)NC1CCN(Cc2ccccc2)CC1` ?
Result string: 0 (no)

Query string: is_below(Ki, 100 nM) for `O=C(Cc1ccc(F)cc1F)NC1CCN(Cc2ccccc2)CC1` ?
Result string: 0 (no)

Query string: is_below(Ki, 100 nM) for `O=C(Cc1ccccc1)NC1CCN(Cc2ccccc2)CC1` ?
Result string: 0 (no)

Query string: is_below(Ki, 100 nM) for `COc1ccc(CC(=O)NC2CCN(Cc3ccccc3)CC2)cc1OC` ?
Result string: 0 (no)

Query string: is_below(Ki, 100 nM) for COc1cccc(C(O)CNC2CCN(Cc3ccccc3)CC2)c1OC (stereo unspecified) ?
Result string: 0 (no)
